# PROTOCOL SUMMARY: HeLa cell cytotoxicity, dose response, cytotoxicity control, ATP luminescence, cherry-pick samples (AID 687004);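 also: 0% = neutral control median and -100% = staurosporine 10 µM control median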
# CONDITIONS: HeLa viability, ATP luminescence (CellTiter-Glo), 48 h; series mostly up to 26 µM
Results with a measured potency or affinity are listed apart. The source made the active and inactive calls.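 The calls were made as follows: active = a fitted half-maximal concentration no higher than twice the top valid tested dose, with signal falling as cells die; inconclusive = flat curve between -70% and -30%, or poor fit; inactive = the rest, including signal rising instead of falling.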
VALUE TYPE: activity change, negative = cytotoxicity

Cc1noc(C)c1S(=O)(=O)Nc1ccc2c(c1)C(=O)N([C@H](C)CO)C[C@@H](C)[C@H](CN(C)Cc1ccccc1)OCCCC[C@H](C)O2	inactive
C[C@H](CO)N1C[C@H](C)[C@H](CN(C)CC2CCCCC2)Oc2c(NS(C)(=O)=O)cccc2C1=O	inactive
C[C@@H]1CN([C@H](C)CO)C(=O)c2c(c3ccccc3n2C)-c2ccccc2CO[C@H]1CN(C)S(=O)(=O)c1cccs1	inactive
COc1ccc(CN(C)C[C@@H]2Oc3ccc(NC(=O)C4CC4)cc3C(=O)N([C@@H](C)CO)C[C@H]2C)cc1	inactive

###

# PROTOCOL SUMMARY: Fgf4 mRNA decrease in mouse ESCs, confirmation, esBAF inhibitor project, cell-based, mouse ESC, RT-qPCR, cherry-pick (AID 743177);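 also: Fgf4 transcript normalised to actin in duplex TaqMan qPCR; cells exposed to compound for 24 h before lysis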
# CONDITIONS: mouse ESC E14, Fgf4 mRNA qPCR fold change; at 33 µM; stronger effect = lower value
Some of the results follow. Records with an inconclusive call do not appear.
Form field: Fgf4 expression fold change (one value per entry).
Please respond with just the number, no unit label.

COc1cc2ccccc2cc1C(=O)Nc1ccccc1C	0.878
O=C(c1cc(-c2ccc(Cl)cc2)on1)N1CCN(c2ccccc2)CC1	0.994
COc1ccc(C(=O)CCc2ccccc2O)c(OC)c1	0.979
Clc1cccc(Cl)c1Cn1nnc(-c2cccs2)n1	0.892

Exercise: Name the recorded Fgf4 expression fold change of the item `O=C(Nc1cccnc1Cl)c1cc(-c2ccccc2O)on1` in your answer.
Solution: 1.05

Exercise: Identify measured Fgf4 expression fold change associated with `COc1ccc(Nc2ncnc3sc(C)cc23)cc1`
Solution: 1.26

Exercise: Report Fgf4 expression fold change for `Cc1nc(-c2ccccc2)sc1-c1nnc(C2CC2)o1`
Solution: 1.05

Exercise: Note down Fgf4 expression fold change recorded for `CCc1sc(C(=O)N2CCN(CC(=O)Nc3cccc(F)c3)CC2)cc1C`
Solution: 0.972

Exercise: Please look at this compound and report its Fgf4 expression fold change: `O=C(c1noc2c1CCCC2)N1CCc2ccccc2C1`
Solution: 1.15

Exercise: State its Fgf4 expression fold change: CC(Cc1cccs1)NC(=O)c1cccc(Cl)c1 (stereo not drawn)
Solution: 1.08

Exercise: Give a short answer stating reported Fgf4 expression fold change for `CC(C)(C)NC(=O)Cn1nnc(-c2ccccc2Cl)n1` .
Solution: 0.933

Exercise: Please list Fgf4 expression fold change recorded for the compound `O=C(CCNC(=O)c1ccccc1)Nc1nc2ccccc2s1`
Solution: 0.653

Exercise: Give the measured Fgf4 expression fold change for `O=C(NN=Cc1ccc2c(c1)CCC2)c1ccccc1O`
Solution: 0.972

###

Listed here: items and their measured max activity.
# PROTOCOL SUMMARY: NIH:OVCAR-3 ovarian cancer cell cytotoxicity, dose response, PAX8 inhibitor project, plate reader, dry powder samples (AID 743044)
# CONDITIONS: NIH:OVCAR-3 ovarian cancer cell viability; at 35 µM, stronger effect = lower value unless noted
Results with a measured potency or affinity are listed apart. Inconclusive results are not listed. The source made the active and inactive calls. How the calls were made is not given here.

O=C(C[C@H]1CC[C@H]2[C@@H](COC[C@@H](O)CN2Cc2ccc(Oc3ccccc3)cc2)O1)N1CCCCC1	35% (inactive)

Exercise: Determine its reported max activity: `C[C@H]1CCCCO[C@H](CN(C)C(=O)Nc2cccc3ccccc23)[C@@H](C)CN([C@@H](C)CO)C(=O)c2cc(NS(=O)(=O)c3ccc(Cl)cc3)ccc2O1`
Solution: -25.9% (inactive)

Exercise: Using the record for O=C(Nc1ccc(F)cc1)N1C[C@@H]2N[C@H](C1)C2c1ccc(/C=C/c2ccccc2)cc1 (some centres not stated) , state its measured max activity.
Solution: -17.6% (inactive)

Exercise: # return recorded max activity for entry `C[C@@H]1CN([C@H](C)CO)C(=O)c2cc(NC(=O)Nc3ccccc3)ccc2O[C@@H](C)CCCCO[C@H]1CN(C)Cc1ccc(Cl)c(Cl)c1`
Solution: -19.3% (inactive)

Exercise: Look up max activity of `O=C(C[C@H]1CC[C@@H]2[C@H](COC[C@@H](O)CN2Cc2ccc(F)cc2)O1)NCc1ccccc1Cl` and report it.
Solution: 64.7% (inactive)

###

# SUBJECT OF TEST: Streptavidin (Streptomyces avidinii) (UniProt P22629)
# Sequence (P22629 whole entry, looked up): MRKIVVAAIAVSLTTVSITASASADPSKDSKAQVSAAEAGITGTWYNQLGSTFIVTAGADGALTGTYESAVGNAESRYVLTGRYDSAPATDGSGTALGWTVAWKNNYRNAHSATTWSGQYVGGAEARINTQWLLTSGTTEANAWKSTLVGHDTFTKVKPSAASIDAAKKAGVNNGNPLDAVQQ
# PROTOCOL SUMMARY: streptavidin binders on small-molecule microarray, primary screen, artefact control for SMM compound annotation, biophysical, 635/667 nm fluorescence (AID 1147);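 also: signal reflects streptavidin binding to arrayed compounds as a control protein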
# CONDITIONS: streptavidin binding, higher = more signal
Kind request: treat 0.8 as inclusive, so composite z-score at 0.8 or higher is Satisfied, anything lower is Not satisfied.

Some solved cases for reference:
CC(C)(C)OC(=O)CC[C@@]12N=C(c3ccc(OCCCO)cc3)O[C@@H]1c1ccccc1N(Cc1ccccc1)C2=O	Not satisfied
C=C(CCCC)/C(=C/C[C@@H](OC(=O)c1ccncc1)c1ccc(OCCO)cc1)c1cnc2ccccc2c1	Satisfied
COCCOC(=O)N1C(=O)[C@@]2(c3cc(C#CCCO)ccc31)[C@H](c1ccccc1OCCO)N1[C@H](c3ccccc3)[C@H](c3ccccc3)OC(=O)[C@H]1[C@@H]2C(=O)NC[C@H](O)c1ccccc1	Not satisfied
O=C1N(CCS(=O)(=O)c2ccccc2)Cc2ccccc2[C@@H]2OC(c3ccc(OCCCO)cc3)=N[C@]12Cc1ccccc1	Satisfied

Turning now to a further record.
Exercise: Answer whether composite z-score of `COC(=O)[C@@]1(CCC(=O)OC(C)(C)C)COC(c2ccc(OCCCO)cc2)=N1` is greater than or equal to 0.8.
Solution: Not satisfied

###

# PROTOCOL SUMMARY: basal RPMI8226 viability, no added stimulus, profiling panel, cell-based, calcein-AM fluorescence, 48 h, PK04 Diversity Set (AID 1166);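 also: cells grown under basal conditions without added stimulus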
# CONDITIONS: RPMI8226 myeloma viability, higher = more signal
// z-score lookup, one value per entry
// return a plain number; no unit text

Consider the following illustrative entries.
CO[C@H]1O[C@H](CO)[C@@H](OC(=O)Nc2ccccc2)[C@H](OC(=O)Nc2ccccc2-c2ccccc2)[C@H]1OC(=O)Nc1ccccc1-c1ccccc1	-4.34
CC(C)C(=C=CC[C@H](O)c1ccc(OCCO)cc1)C[C@H](O)COCc1ccccc1	-3.77
C=C(COC)C(=O)CC[C@H](OC(=O)c1ccccc1-c1ccccc1C(=O)O)c1ccccc1OCCO	0.0361

Exercise: Consider the compound `C=CCNC(=O)[C@@H]1[C@H]2C(=O)O[C@H](c3ccccc3)[C@H](c3ccccc3)N2[C@H](c2ccc(O)cc2)[C@@]12C(=O)N(C(=O)OCCOC)c1ccc(C#Cc3ccc(OC)cc3)cc12` and give its recorded z-score.
Solution: -2.52

Exercise: For the compound `O=C1O[C@H](c2ccccc2)[C@H](c2ccccc2)N2[C@H]1[C@@H](C(=O)NC[C@H](O)c1ccccc1)[C@]1(C(=O)Nc3ccc(C#CC4(O)CCCCCC4)cc31)[C@H]2c1ccc(O)cc1` , give its reported z-score.
Solution: -1.62

Exercise: Identify z-score associated with the compound `COC(=O)c1c2oc(c1C(=O)OC)C(=O)N[C@@H](C(C)C)Cn1nncc1C1(CCCCC1)NC(=O)N[C@H](CO)CC2`
Solution: -0.161

Exercise: Specify z-score for C=CCC(OC(C)=O)[C@@H]1[C@@H](N(Cc2ccc(-c3ccccc3)cc2)C(=O)c2ccc(-c3ccccc3)cc2)c2cc(OCCCO)ccc2N1C(=O)c1ccc(-c2ccccc2)cc1 (some centres not stated) and stop.
Solution: 0.18

Exercise: For the compound `NC(=O)NCC#Cc1ccc2c(c1)[C@]1(C(=O)N2)[C@H](c2ccc(OCCO)cc2)N2[C@H](c3ccccc3)[C@H](c3ccccc3)OC(=O)[C@H]2[C@@H]1C(=O)Nc1nc2ccccc2s1` , give its measured z-score value.
Solution: 1.55

Exercise: Using known records, supply z-score for `C=CC[C@]1(C(=O)N2CCCCC2)COC(c2ccc(OCCCO)cc2)=N1`
Solution: -2.3

Exercise: Could you please provide reported z-score for `COC(=O)C(CC#Cc1ccc2c(c1)[C@]1(C(=O)N2)[C@H](c2ccccc2OCCO)N2[C@H](c3ccccc3)[C@H](c3ccccc3)OC(=O)[C@H]2[C@@H]1C(=O)N1CCCCCCC1)C(=O)OC` ? Thanks!
Solution: -0.576

Exercise: // fetch z-score given entry `COc1ccc([Si](C)(C)[C@H]2[C@H](CC(=O)N3Cc4ccccc4C[C@H]3CO)O[C@@]3(C(=O)N(Cc4cccc(N5C(=O)COc6ccccc65)c4)c4ccccc43)[C@@H]2C)cc1`
Solution: -1.19

Exercise: For the compound CC(C)C[C@@H]1NC(=O)[C@@]23C(=O)N[C@@H](Cc4ccccc4)C2[C@H](C)[C@@]2(C)O[C@H]2C3/C=C/CC/C=C/CNC(=O)[C@@H](C)NC1=O (some centres not stated) , give its reported z-score.
Solution: -0.386
